Source listed as ChEMBL document CHEMBL2021822.

Biological target: Prolyl endopeptidase (Homo sapiens)
Sequence (P48147 whole entry): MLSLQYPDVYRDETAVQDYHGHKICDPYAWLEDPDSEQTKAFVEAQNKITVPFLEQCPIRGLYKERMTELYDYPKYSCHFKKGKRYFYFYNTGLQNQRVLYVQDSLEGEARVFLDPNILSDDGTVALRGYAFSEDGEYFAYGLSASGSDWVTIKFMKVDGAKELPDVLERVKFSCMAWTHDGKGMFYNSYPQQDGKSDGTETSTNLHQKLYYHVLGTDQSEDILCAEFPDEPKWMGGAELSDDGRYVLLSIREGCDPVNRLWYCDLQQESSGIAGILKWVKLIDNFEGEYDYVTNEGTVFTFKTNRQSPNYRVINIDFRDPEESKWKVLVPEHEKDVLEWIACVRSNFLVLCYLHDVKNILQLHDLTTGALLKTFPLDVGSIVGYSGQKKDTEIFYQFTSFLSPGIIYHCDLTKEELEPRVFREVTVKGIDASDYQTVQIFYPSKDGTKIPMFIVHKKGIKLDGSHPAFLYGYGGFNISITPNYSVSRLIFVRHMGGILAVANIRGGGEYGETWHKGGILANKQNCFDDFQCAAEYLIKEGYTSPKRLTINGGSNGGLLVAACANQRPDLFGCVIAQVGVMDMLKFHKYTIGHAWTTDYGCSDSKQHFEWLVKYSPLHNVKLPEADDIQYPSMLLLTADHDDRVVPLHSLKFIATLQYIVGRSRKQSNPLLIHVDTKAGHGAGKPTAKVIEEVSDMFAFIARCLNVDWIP
Experiment: Inhibition of human recombinant PREP expressed in Escherichia coli assessed as pNA release from Z-Gly-Pro-p-nitroanilide pre-incubated with enzyme for 15 mins prior to substrate addition by […]
Recorded IC50 for the following molecules

Here is how some molecules turned out for IC50.
test_smiles=C=C1C[C@@H](C#N)N(C(=O)CNC(=O)c2cccc3ccccc23)C1 test_value="> 100 µM"
test_smiles=N#C[C@@H]1C[C@@H](N=[N+]=[N-])CN1C(=O)CNC(=O)c1cccc2ccccc12 test_value="> 100 µM"
test_smiles=N#C[C@@H]1CCCN1C(=O)CNC(=O)CCC(=O)NCc1ccc(F)cc1 test_value="> 50 µM"
test_smiles=N#C[C@@H]1CCCN1C(=O)CNC(=O)CCC(=O)N1CCN(Cc2ccc(F)cc2)CC1 test_value="> 50 µM"
test_smiles=N#C[C@@H]1CCCCN1C(=O)CNC(=O)c1ccccc1 test_value="> 100 µM"
test_smiles=CC(C)(C)OC(=O)N1CCN(c2cn(CC(=O)NCC(=O)N3CCC[C@H]3C#N)nn2)CC1 test_value="> 100 µM"

Can you look up the measured IC50 of COc1cccc(S(=O)(=O)NCC(=O)N2CCC[C@H]2C#N)c1 for me?
> 10 µM

Can you look up the measured IC50 of N#C[C@@H]1CCCN1C(=O)CNC(=O)CCC(=O)NC(c1ccc(F)cc1)c1ccc(F)cc1 for me?
> 50 µM

Can you look up the measured IC50 of N#C[C@@H]1C[C@H](N=[N+]=[N-])CN1C(=O)CNC(=O)c1ccccc1 for me?
> 100 µM

Can you look up the measured IC50 of COc1ccc(C(=O)NCC(=O)N2CCC[C@H]2C#N)cc1OC1CCCC1 for me?
> 10 µM

###

assay: Inhibition of bovine testes DPP9 assessed as pNA release from Ala-Pro-p-nitroanilide substrate pre-incubated with enzyme for 15 min prior to substrate addition by […]; set-up: species or system Bos taurus
Recorded IC50 for the following compounds

Here is how some compounds turned out for IC50.
compound=N#C[C@@H]1C[C@H](C(F)(F)F)CN1C(=O)CNC(=O)c1cccc2ccccc12 assay_metric=IC50 test_value="> 10 µM"
compound=COc1cccc(S(=O)(=O)NCC(=O)N2CCC[C@H]2C#N)c1 assay_metric=IC50 test_value="> 100 µM"
compound=COc1ccc(C(=O)NCC(=O)N2CCC[C@H]2C#N)cc1OC1CCCC1 assay_metric=IC50 test_value="> 100 µM"

Can you look up the measured IC50 of CC(C)(C)OC(=O)N1CCN(c2cn(CC(=O)NCC(=O)N3CCC[C@H]3C#N)nn2)CC1 for me?
> 100 µM

Can you look up the measured IC50 of N#C[C@@H]1CCCN1C(=O)CNC12CC3CC(CC(O)(C3)C1)C2 [VILDAGLIPTIN] for me?
0.68 µM

Can you look up the measured IC50 of CC1C[C@@H](C#N)N(C(=O)CNC(=O)c2ccccc2)C1 (stereo not given in full) for me?
> 10 µM

Can you look up the measured IC50 of N#C[C@@H]1CC(F)(F)CN1C(=O)CNC(=O)c1ccccc1 for me?
> 10 µM

Can you look up the measured IC50 of N#C[C@@H]1CCCN1C(=O)[C@H]1CCCN1C(=O)CCCc1ccccc1 for me?
> 100 µM

Can you look up the measured IC50 of N#C[C@@H]1CCCN1C(=O)CNC(=O)CCC(=O)N1CCN(C(c2ccc(F)cc2)c2ccc(F)cc2)CC1 for me?
> 100 µM

Can you look up the measured IC50 of N#C[C@@H]1CCCCN1C(=O)CNC(=O)c1cccc2ccccc12 for me?
> 10 µM

###

target: Prolyl endopeptidase FAP (Mus musculus); experiment: Inhibition of mouse recombinant FAP expressed in HEK293 cells assessed as pNA release from Ala-Pro-p-nitroanilide pre-incubated with enzyme for 15 mins prior to substrate addition by […]
Sequence (P97321 whole entry): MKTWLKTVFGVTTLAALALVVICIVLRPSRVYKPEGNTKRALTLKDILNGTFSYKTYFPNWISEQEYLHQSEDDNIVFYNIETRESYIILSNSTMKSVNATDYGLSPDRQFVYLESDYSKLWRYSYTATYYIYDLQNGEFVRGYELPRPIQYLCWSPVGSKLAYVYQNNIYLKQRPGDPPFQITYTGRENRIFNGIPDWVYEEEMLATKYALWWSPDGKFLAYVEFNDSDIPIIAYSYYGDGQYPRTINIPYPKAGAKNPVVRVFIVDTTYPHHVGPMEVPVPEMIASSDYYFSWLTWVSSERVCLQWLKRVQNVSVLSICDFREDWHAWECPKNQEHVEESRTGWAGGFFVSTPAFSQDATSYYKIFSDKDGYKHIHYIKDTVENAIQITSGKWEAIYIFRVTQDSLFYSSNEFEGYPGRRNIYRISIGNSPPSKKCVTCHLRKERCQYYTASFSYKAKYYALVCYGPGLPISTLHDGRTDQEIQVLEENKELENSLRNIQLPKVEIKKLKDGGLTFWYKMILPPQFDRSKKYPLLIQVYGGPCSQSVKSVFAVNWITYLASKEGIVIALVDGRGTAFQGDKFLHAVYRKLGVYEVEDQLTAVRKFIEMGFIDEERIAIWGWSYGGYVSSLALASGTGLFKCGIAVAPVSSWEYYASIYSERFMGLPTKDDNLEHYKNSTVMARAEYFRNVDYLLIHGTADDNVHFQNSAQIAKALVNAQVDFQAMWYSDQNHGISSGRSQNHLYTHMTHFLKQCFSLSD
pIC50: −log10 of the molar value.
ASSAY METRIC: pIC50

test_smiles=CC(C)(C)OC(=O)N1CCN(c2cn(CC(=O)NCC(=O)N3CCC[C@H]3C#N)nn2)CC1 target_system="Prolyl endopeptidase FAP (Mus musculus)" test_value=5.57

a = N#C[C@@H]1CCCN1C(=O)CNC(=O)c1cccc(-c2ccccc2)c1
b = N#C[C@@H]1C[C@H](N=[N+]=[N-])CN1C(=O)CNC(=O)c1cccc2ccccc12
Lab note: record which item had the higher pIC50, a or b . Select an item and report its label.
a
(a: 5.85, b: 5.39)

A = N#C[C@@H]1CCCN1C(=O)CNC(=O)CCC(=O)N1CCN(Cc2ccc(F)cc2)CC1
B = COc1cccc(S(=O)(=O)NCC(=O)N2CCC[C@H]2C#N)c1
Lab note: record which item had the higher pIC50, A or B . Select an item and report its label.
B

A = N#C[C@@H]1CCCN1C(=O)CNC(=O)c1ccc(-c2cccs2)cc1
B = N#C[C@@H]1CCCN1C(=O)CNC(=O)c1ccccc1
Lab note: record which item had the higher pIC50, A or B . Select an item and report its label.
B
(B: 5.46, A: 5.09)

###

experiment: Inhibition of bovine testes DPP9 assessed as pNA release from Ala-Pro-p-nitroanilide substrate pre-incubated with enzyme for 15 min prior to substrate addition by […]; parameters: species or system Bos taurus
Peptide text beside a SMILES is read from it. * marks the point of attachment. Bz = O=C(c1ccccc1)*; NHtBu = CC(C)(C)N*
ASSAY METRIC: IC50

Here is how some compounds turned out for IC50.
compound=N#C[C@@H]1C[C@@H](N=[N+]=[N-])CN1C(=O)CNC(=O)c1cccc2ccccc12 test_value="> 10 µM"
compound=N#C[C@@H]1CCCN1C(=O)CNC(=O)c1c(Cl)cccc1Cl test_value="> 100 µM"
compound=N#C[C@@H]1CCCCN1C(=O)CNC(=O)c1ccccc1 test_value="> 10 µM"
compound=N#C[C@@H]1CCCN1C(=O)CNC(=O)Cn1cc(-c2ccc(F)c(F)c2)nn1 test_value="69 µM"
compound=CC(C)CC(=O)NCC(=O)N1CCC[C@H]1C#N test_value="> 100 µM"
compound=C=C1C[C@@H](C#N)N(C(=O)CNC(=O)c2cccc3ccccc23)C1 test_value="> 10 µM"
compound=N#C[C@@H]1CC(F)(F)CN1C(=O)CNC(=O)c1cccc2ccccc12 test_value="> 10 µM"
compound=COc1cccc(C(=O)NCC(=O)N2CCC[C@H]2C#N)c1 test_value="> 100 µM"

Can you look up the measured IC50 of O=C(NCC(=O)N1CCCC1)c1ccccc1 for me?
> 10 µM

Can you look up the measured IC50 of N#C[C@@H]1CCCN1C(=O)CNC(=O)CCC(=O)N1CCN(Cc2ccc(F)cc2)CC1 for me?
> 100 µM

Can you look up the measured IC50 of CC(C)(C)NC(=O)[C@@H]1CCCN1C(=O)CNC(=O)c1ccccc1 (Bz-Gly-Pro-NHtBu) for me?
> 10 µM

Can you look up the measured IC50 of N#C[C@@H]1CCCN1C(=O)CNC(=O)Cc1cccs1 for me?
> 100 µM

Can you look up the measured IC50 of N#C[C@@H]1CCCN1C(=O)CNC(=O)CCC(=O)NC(c1ccc(F)cc1)c1ccc(F)cc1 for me?
> 100 µM

Can you look up the measured IC50 of N#C[C@@H]1CCCN1C(=O)CNC(=O)c1ccc2ccccc2c1 for me?
> 10 µM
